Tested on: PSA mRNA expression in LNCaP cells
Test: DHT-induced PSA mRNA in LNCaP cells, quantitative real-time RT-PCR
Format: cell-based
Settings: Homo sapiens; LNCaP + DHT; read-out: IC50 for inhibition of PSA mRNA expression
pIC50: −log10 of the molar value.
OBSERVED PROPERTY: pIC50

CC(O)(CS(=O)(=O)c1ccc(F)cc1)C(=O)Nc1ccc(C#N)c(C(F)(F)F)c1 (stereo not shown) [bicalutamide, reference compound] ... 6.05

----------
Test: Liver microsomal stability, human
Conditions: 1 μM, Human, 1 hr at 37° C., 1 mg/ml microsomes
OBSERVED PROPERTY: Mean remaining parent NADPH-free (%)

CC(=O)N[C@H](CCNC(=O)c1cc(NC(=O)c2cc(NC(=O)c3cc(NC(=O)c4nccn4C)cn3C)cn2C)cn1C)C(=O)Nc1cn(C)c(C(=O)Nc2cc(C(=O)Nc3cc(C(=O)Nc4cc(C(=O)NCCCN(C)CCCNC(=O)c5cccc(C(=O)O)c5)n(C)c4)n(C)c3)n(C)c2)n1 [Polyamide 78, ImPyPyPy-2-(R)^AcHNγ-ImPyPyPy-NHMe-IPA] ... 94.9
CC(=O)N[C@@H](CNC(=O)c1cc(NC(=O)c2cc(NC(=O)c3cc(NC(=O)c4nccn4C)cn3C)cn2C)cn1C)CC(=O)Nc1cn(C)c(C(=O)Nc2cc(C(=O)Nc3cc(C(=O)Nc4cc(C(=O)NCCCN(C)CCCNC(=O)c5cccc(C(=O)O)c5)n(C)c4)n(C)c3)n(C)c2)n1 [Polyamide 80, ImPyPyPy-3-(R)^AcHNγ-ImPyPyPy-NHMe-IPA] ... 3.8
CN(CCCNC(=O)c1cccc(C(=O)O)c1)CCCNC(=O)c1cc(NC(=O)c2cc(NC(=O)c3cc(NC(=O)c4nc(NC(=O)C[C@@H](N)CNC(=O)c5cc(NC(=O)c6cc(NC(=O)c7cc(NC(=O)c8nccn8C)cn7C)cn6C)cn5C)cn4C)cn3C)cn2C)cn1C [Polyamide 79, ImPyPyPy-3-(R)H^2Nγ-ImPyPyPy-NHMe-IPA] ... 100
CN(CCCNC(=O)c1cccc(C(=O)O)c1)CCCNC(=O)c1cc(NC(=O)c2cc(NC(=O)c3cc(NC(=O)c4nc(NC(=O)[C@H](N)CCNC(=O)c5cc(NC(=O)c6cc(NC(=O)c7cc(NC(=O)c8nccn8C)cn7C)cn6C)cn5C)cn4C)cn3C)cn2C)cn1C [Polyamide 1, ImPyPyPy-2-(R)H^2Nγ-ImPyPyPy-NHMe-IPA] ... 92.3

----------
Assay: Liver microsomal stability, human
Conditions: 1 μM, Human, 1 hr at 37° C., 1 mg/ml microsomes
OBSERVED PROPERTY: Mean remaining parent with NADPH (%)

CN(CCCNC(=O)c1cccc(C(=O)O)c1)CCCNC(=O)c1cc(NC(=O)c2cc(NC(=O)c3cc(NC(=O)c4nc(NC(=O)C[C@@H](N)CNC(=O)c5cc(NC(=O)c6cc(NC(=O)c7cc(NC(=O)c8nccn8C)cn7C)cn6C)cn5C)cn4C)cn3C)cn2C)cn1C [Polyamide 79, ImPyPyPy-3-(R)H^2Nγ-ImPyPyPy-NHMe-IPA] ... 91.9
CC(=O)N[C@H](CCNC(=O)c1cc(NC(=O)c2cc(NC(=O)c3cc(NC(=O)c4nccn4C)cn3C)cn2C)cn1C)C(=O)Nc1cn(C)c(C(=O)Nc2cc(C(=O)Nc3cc(C(=O)Nc4cc(C(=O)NCCCN(C)CCCNC(=O)c5cccc(C(=O)O)c5)n(C)c4)n(C)c3)n(C)c2)n1 [Polyamide 78, ImPyPyPy-2-(R)^AcHNγ-ImPyPyPy-NHMe-IPA] ... 95.3
CC(=O)N[C@@H](CNC(=O)c1cc(NC(=O)c2cc(NC(=O)c3cc(NC(=O)c4nccn4C)cn3C)cn2C)cn1C)CC(=O)Nc1cn(C)c(C(=O)Nc2cc(C(=O)Nc3cc(C(=O)Nc4cc(C(=O)NCCCN(C)CCCNC(=O)c5cccc(C(=O)O)c5)n(C)c4)n(C)c3)n(C)c2)n1 [Polyamide 80, ImPyPyPy-3-(R)^AcHNγ-ImPyPyPy-NHMe-IPA] ... 3.0
CN(CCCNC(=O)c1cccc(C(=O)O)c1)CCCNC(=O)c1cc(NC(=O)c2cc(NC(=O)c3cc(NC(=O)c4nc(NC(=O)[C@H](N)CCNC(=O)c5cc(NC(=O)c6cc(NC(=O)c7cc(NC(=O)c8nccn8C)cn7C)cn6C)cn5C)cn4C)cn3C)cn2C)cn1C [Polyamide 1, ImPyPyPy-2-(R)H^2Nγ-ImPyPyPy-NHMe-IPA] ... 96.9
